- target.entity: T1, Human Glypican3-Fc (ACRO Biosystems, GP3-H5258) (human, UniProt P51654 25-559)
- T1 construct: Bought fusion protein, captured in Methods B-2, B-3 and B-4; Catalogue number is printed only in Method B-2; not shown: Fc part of the bought fusion
- assay.method.text: SPR (Biacore T200), Method B-3: Glypican3-Fc captured on Protein A chip, peptide as analyte
Starred links: 1 amine or outer side, 2 acyl side, 3 side chain; linkers in the order of their positions; H or OH if unused. Positions of bridges follow the written chain, without caps; N, C: chain ends. Non-standard residues stand in square brackets, D forms with d. Primed or numbered codes have the meaning given here. MeDapCOpipzaa = 3-(4-(carboxymethyl)piperazine-1-carboxamido)-2-(methylamino)propanoic acid, CN([C@@H](CNC(=O)N1CCN(CC(=O)[*:3])CC1)C(=O)[*:2])[*:1]; MeKCOpipzaa = N-alpha-methyl-N6-[4-(carboxymethyl)piperazine-1-carbonyl]-L-lysine, CN([C@@H](CCCCNC(=O)N1CCN(CC(=O)[*:3])CC1)C(=O)[*:2])[*:1]; MeA4paa = 3-(1-(carboxymethyl)piperidin-4-yl)-2-(methylamino)propanoic acid, CN([C@@H](CC1CCN(CC(=O)[*:3])CC1)C(=O)[*:2])[*:1]; 3Py6NHaa = 2-amino-3-(6-((carboxymethyl)amino)pyridin-3-yl)propanoic acid, O=C([C@H](Cc1ccc(NCC(=O)[*:3])nc1)N[*:1])[*:2]; MeHseMe″ = (2S)-4-methoxy-2-(methylamino)butanoic acid (N-methyl-O-methyl-L-homoserine), COCC[C@@H](C(=O)[*:2])N(C)[*:1]; MeHseMe(3) = N-methyl-O-methyl-homoserine, 4-methoxy-2-(methylamino)butanoic acid, COCC[C@@H](C(=O)[*:2])N(C)[*:1]; TMe(3) = O-methyl-L-threonine ((2S,3R)-2-amino-3-methoxybutanoic acid), CO[C@H](C)[C@H](N[*:1])C(=O)[*:2]; F4aao = 4-(carboxymethoxy)-L-phenylalanine, O=C([C@H](Cc1ccc(OCC(=O)[*:3])cc1)N[*:1])[*:2]; MeHseMe = N-methyl-O-methyl-L-homoserine, COCC[C@@H](C(=O)[*:2])N(C)[*:1]; Thr(Me)″ = TMe = O-methyl-L-threonine, CO[C@H](C)[C@H](N[*:1])C(=O)[*:2]; Phe(4-(1-Me-pyrazol-4-yl)) = Cn1cc(-c2ccc(C[C@H](N)C(=O)O)cc2)cn1; TMe = O-methyl-L-threonine, CO[C@H](C)[C@H](N[*:1])C(=O)[*:2]; NMeAla(isoquinolin-7-yl) = CN[C@@H](Cc1ccc2ccncc2c1)C(=O)O; Phe(4-CH2COOH) = N[C@@H](Cc1ccc(CC(=O)O)cc1)C(=O)O; 3Pal(6-Ph) = N[C@@H](Cc1ccc(-c2ccccc2)nc1)C(=O)O; Phe(4-COOH) = N[C@@H](Cc1ccc(C(=O)O)cc1)C(=O)O; NMe2Nal = CN[C@@H](Cc1ccc2ccccc2c1)C(=O)O; AEF = NCCOc1ccc(C[C@H](N)C(=O)O)cc1; NMe3Pal = CN[C@@H](Cc1cccnc1)C(=O)O; aIle = CC[C@@H](C)[C@H](N)C(=O)O; NMeQ = CN[C@@H](CCC(N)=O)C(=O)O; NMeK = CN[C@@H](CCCCN)C(=O)O; NMeC = CN[C@@H](CS)C(=O)O; NMeA = CN[C@@H](C)C(=O)O; MeK = methyl-L-lysine
experimental.readout: pKd
pKd here: minus log base 10 of the concentration, concentration in moles per litre.

# count of solved cases: 5
{CH2CO}-[MeK][NMeQ]D[MeA4paa][Phe(4-COOH)][TMe(3)]I[Phe(4-CH2COOH)][NMe2Nal]G[Phe(4-(1-Me-pyrazol-4-yl))][NMeC]-NH2 (thioether N-12) [Macrocyclic peptide of Example 2-51 (SEQ ID No. 25)]; 8.60
{CH2CO}-[NMeK][MeKCOpipzaa]D[MeDapCOpipzaa][3Py6NHaa][Thr(Me)″]I[F4aao][NMeAla(isoquinolin-7-yl)]G[3Pal(6-Ph)][NMeC]-NH2 (thioether N-12) [Macrocyclic peptide of Example 2-30 (SEQ ID No. 47)]; 8.18
KSDXFTIXFGXC (not fully specified; MeKCOpipzaa-MeHseMe-D-MeDapCOpipzaa-F4COO-TMe-I-Yae-MeNal27N-G-3Py6Ph-MeC-NH2; thioether ring from N-terminal acetyl to MeC12) [Macrocyclic peptide of Example 2-38 (SEQ ID No. 55)]; 8.74
{CH2CO}-[NMeA][MeHseMe″]D[NMeQ][Phe(4-COOH)][TMe]I[AEF][NMe2Nal]G[3Pal(6-Ph)][NMeC]-NH2 (thioether N-12; not fully specified (residue 8)) [Mod3]; 9.05
{CH2CO}-[NMeA][MeHseMe]D[NMeQ][Phe(4-COOH)][Thr(Me)″]I[AEF][NMe2Nal]G[3Pal(6-Ph)][NMeC]-NH2 (thioether N-12) [Macrocyclic peptide of Example 2-28 (SEQ ID No. 44)]; 9.52

// pKd value for {CH2CO}-[NMeA][NMe3Pal]DY[aIle]IY[NMe2Nal]G[3Pal(6-Ph)][NMeC]-NH2 (thioether N-11; SMILES CC[C@@H](C)[C@@H]1NC(=O)[C@H](Cc2ccc(O)cc2)NC(=O)[C@H](CC(=O)O)NC(=O)[C@H](Cc2cccnc2)N(C)C(=O)[C@H](C)N(C)C(=O)CSC[C@@H](C(N)=O)N(C)C(=O)[C@H](Cc2ccc(-c3ccccc3)nc2)NC(=O)CNC(=O)[C@H](Cc2ccc3ccccc3c2)N(C)C(=O)[C@H](Cc2ccc(O)cc2)NC(=O)[C@H]([C@@H](C)CC)NC1=O, 11 residues) [Macrocyclic peptide of Example 2-44 (SEQ ID No. 69)] : 7.31

// pKd value for {CH2CO}-[MeK][MeHseMe(3)]D[NMeQ][Phe(4-COOH)]II[Phe(4-CH2COOH)][NMe2Nal]G[3Pal(6-Ph)][NMeC]-NH2 (thioether N-12) [Macrocyclic peptide of Example 2-47 (SEQ ID No. 21)] : 9.70

// pKd value for KKDKFTIFFGXC (not fully specified; MeK-MeKCOpipzaa-D-MeKCOpipzaa-F4COO-TMe-I-F4aaopipzaa-MeNal27N-G-3Py6Ph-MeC-NH2; thioether ring from N-terminal acetyl to MeC12) [Macrocyclic peptide of Example 2-32 (SEQ ID No. 49)] : 8.74
